Data provenance: the supplement of paper PMC12855868

B1: library; numbered along this chain (parent)
chain: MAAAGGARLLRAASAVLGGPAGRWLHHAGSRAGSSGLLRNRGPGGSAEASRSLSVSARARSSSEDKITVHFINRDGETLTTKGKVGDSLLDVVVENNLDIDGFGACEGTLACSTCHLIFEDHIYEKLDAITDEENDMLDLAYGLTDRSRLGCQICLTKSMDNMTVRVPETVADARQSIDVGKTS

Variants of: B1
Procedure text: scaled log2 fold change in cell abundance, elesclomol vs control (0 = silent mean, 1 = nonsense mean) (scaled log2 ratio); higher = higher viability under elesclomol (loss of FDX1 cuproptosis function);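 further: variant abundance is its share of total variant reads in each endpoint sample, from next-generation sequencing of the integrated ORF PCR-amplified out of genomic DNA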
Experimental conditions: with HEK293T FDX1 KO; elesclomol 40 nM; glucose 10 mM; 11 days
scaled log2 fold change values, listed per item

See these solved cases before continuing.
Mutant code	Reading
T80R	-0.512
T68A	-0.389
K158C	0.192

Ask: Give the value of scaled log2 fold change reported for the following: S56T
Reply: 1.19

Ask: Give the value of scaled log2 fold change reported for the following: S34Y
Reply: -0.188

Ask: Give the value of scaled log2 fold change reported for the following: S35N
Reply: -0.653
